molecular target: Sulfhydryl oxidase 1 (Homo sapiens); assay: QSOX1 enzyme inhibitors, primary screen, biochemical, ROS-Glo H2O2 luminescence, HTS (AID 1347418); conditions: recombinant QSOX1, ROS-Glo H2O2 luminescence; at 12.5 µM; hits give high values; active = any value above zero
The whole screen tested about 1,300 compounds, of which about 750 (58%) were called active. Some of the results follow.
Some compounds, each annotated with its measured inhibition.
Entry rule: numbers only, all in %.

[
  {
    "compound": "CN1CCN2c3ccccc3Cc3ccccc3C2C1 (stereo unspecified)",
    "inhibition / %": -1.9
  },
  {
    "compound": "NC1=NCC2c3ccccc3Cc3ccccc3N12 (stereo unspecified)",
    "inhibition / %": 1.4
  }
]

Indicate its recorded inhibition; the compound in question is CSc1nc(N)c2ncn([C@@H]3O[C+](COP(=O)([O-])OP(=O)(O)O)[C@H](O)C3O)c2n1 (stereo partly specified) 0.7

Quick one: give measured inhibition for CN1CCc2cccc3c2C1Cc1ccc(O)c(O)c1-3 (stereo unspecified) 17.1

# return recorded inhibition for input `Cc1cc(C)c(/C=C2\C(=O)Nc3ccccc32)[nH]1` 36.3

Determine from records and report inhibition for `CN(C)S(=O)(=O)c1ccc2c(c1)/C(=C/c1cc3c([nH]1)CCCC3)C(=O)N2` -4.7

The reported measurements were obtained from PubChem BioAssay AID1347418.
